# Test system: Staph. aureus (Meth-Res) A-15097
# ASSAY NOTES: MIC, tube dilution, Staphylococcus aureus A15097 (Meth-Res)
# Assay type: cell-based
# CONDITION LABEL: Staph. aureus A15097 (Meth-Res); overnight 37° C.
In this section we review reported Minimum Inhibitory Concentration (M.I.C.) values for a set of compounds.
OUTCOME MEASURE: Minimum Inhibitory Concentration (M.I.C.)

In [3]: df
Out[3]:
                                   compound   meas_value
0  NC1CCC(C2=C(C(=O)O)N3C(=O)C[C@H]3S2)C1 (single isomer, unassigned) [98 isomer B]   > 63 µg/mL
1  COP(=O)(CCC1=C(C(=O)O)N2C(=O)CC2S1)OC (stereo not drawn)  > 125 µg/mL
2  NC1CCC(C2=C(C(=O)O)N3C(=O)C[C@H]3S2)C1 (single isomer, unassigned) [98 isomer C]   > 63 µg/mL
